Tested on: Neuro 2A mouse neuroblastoma cells
Assay: Cell toxicity: Neuro 2A cell viability (calcein-AM)
Format: cell-based
Conditions: Neuro 2A cells, 30 μM, 24 h exposure

Molecule	Target or system	% of viable cells, %
O=[N+]([O-])c1cc(-c2nc(-c3ccc[n+]([O-])c3)no2)cc(O)c1O	Neuro 2A mouse neuroblastoma cells	93.8
Cc1ccc(C(=O)c2cc(O)c(O)c([N+](=O)[O-])c2)cc1 [Tolcapone, reference compound]	Neuro 2A mouse neuroblastoma cells	27.2
Cc1cc(C(F)(F)F)c(-c2noc(-c3cc(O)c(O)c([N+](=O)[O-])c3)n2)c(-c2ccccc2)[n+]1[O-]	Neuro 2A mouse neuroblastoma cells	45.0
CS(=O)(=O)c1cc(-c2noc(-c3cc(O)c(O)c([N+](=O)[O-])c3)n2)cc[n+]1[O-]	Neuro 2A mouse neuroblastoma cells	64.6
O=[N+]([O-])c1cc(-c2nc(-c3cc[n+]([O-])c(N4CCOCC4)c3)no2)cc(O)c1O	Neuro 2A mouse neuroblastoma cells	105.7
Cc1c(-c2noc(-c3cc(O)c(O)c([N+](=O)[O-])c3)n2)ccc(C(F)(F)F)[n+]1[O-]	Neuro 2A mouse neuroblastoma cells	62.2
O=[N+]([O-])c1cc(-c2nc(-c3ccc[n+]([O-])c3N3CCOCC3)no2)cc(O)c1O	Neuro 2A mouse neuroblastoma cells	110.9
Cc1c(Cl)c(C)[n+]([O-])c(Br)c1-c1noc(-c2cc(O)c(O)c([N+](=O)[O-])c2)n1	Neuro 2A mouse neuroblastoma cells	81.2
O=[N+]([O-])c1cc(-c2nc(-c3cc[n+]([O-])c(Oc4ccccc4)c3)no2)cc(O)c1O	Neuro 2A mouse neuroblastoma cells	83.5
Cc1c(C)c(C)[n+]([O-])c(Br)c1-c1noc(-c2cc(O)c(O)c([N+](=O)[O-])c2)n1	Neuro 2A mouse neuroblastoma cells	69.1
O=[N+]([O-])c1cc(-c2nc(-c3c(Cl)c[n+]([O-])cc3Cl)no2)cc(O)c1O	Neuro 2A mouse neuroblastoma cells	56.9
O=[N+]([O-])c1cc(-c2nc(-c3cc[n+]([O-])cc3)no2)cc(O)c1O	Neuro 2A mouse neuroblastoma cells	98.3
O=[N+]([O-])c1cc(-c2nc(-c3cc[n+]([O-])c(N4CCSCC4)c3)no2)cc(O)c1O	Neuro 2A mouse neuroblastoma cells	91.7
Cc1cc(C)[n+]([O-])c(Cl)c1-c1noc(-c2cc(O)c(O)c([N+](=O)[O-])c2)n1	Neuro 2A mouse neuroblastoma cells	92.3
Cc1cc(C(F)(F)F)c(-c2noc(-c3cc(O)c(O)c([N+](=O)[O-])c3)n2)c[n+]1[O-]	Neuro 2A mouse neuroblastoma cells	81.8

====

# COMT activity (% of control) per record follows
Biological target: mouse liver COMT (Mus musculus)
Construct: Aliquots of 0.5 ml of liver homogenates were preincubated; from tissue; host or cells: mouse liver homogenate (NMRI mice, dosed orally; ex vivo activity)
Sequence (O88587 whole entry): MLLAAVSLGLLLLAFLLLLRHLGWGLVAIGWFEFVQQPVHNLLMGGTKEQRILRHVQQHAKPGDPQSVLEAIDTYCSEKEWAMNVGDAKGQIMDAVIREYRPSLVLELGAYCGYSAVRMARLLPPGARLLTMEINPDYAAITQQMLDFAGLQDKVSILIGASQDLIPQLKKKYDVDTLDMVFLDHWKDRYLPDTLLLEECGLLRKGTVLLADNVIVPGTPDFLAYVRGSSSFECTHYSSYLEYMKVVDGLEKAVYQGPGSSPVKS
Test: Mouse liver COMT activity after oral administration of test compounds
Format: in vivo
Conditions: 3 mg/kg oral, 3 h after administration

Molecular string	Target or system	COMT activity (% of control)
O=[N+]([O-])c1cc(-c2nc(-c3cc[n+]([O-])c(N4CCSCC4)c3)no2)cc(O)c1O	mouse liver COMT (Mus musculus)	92.9 % of control
Cc1c(-c2noc(-c3cc(O)c(O)c([N+](=O)[O-])c3)n2)ccc(C(F)(F)F)[n+]1[O-]	mouse liver COMT (Mus musculus)	10.9 % of control
Cc1c(C)c(C)[n+]([O-])c(Cl)c1-c1noc(-c2cc(O)c(O)c([N+](=O)[O-])c2)n1	mouse liver COMT (Mus musculus)	14 % of control

====

Target: mouse liver COMT (Mus musculus)
Construct: Aliquots of 0.5 ml of liver homogenates were preincubated; from tissue; host or cells: mouse liver homogenate (NMRI mice, dosed orally; ex vivo activity)
Assay: Mouse liver COMT activity after oral administration of test compounds
Format: in vivo
Conditions: 3 mg/kg oral, 3 h after administration

Molecular string	COMT activity (% of control)
O=[N+]([O-])c1cc(-c2nc(-c3ccc[n+]([O-])c3N3CCOCC3)no2)cc(O)c1O	35.5 % of control
Cc1ccc(-c2noc(-c3cc(O)c(O)c([N+](=O)[O-])c3)n2)c[n+]1[O-]	56.6 % of control
Cc1cc(C)[n+]([O-])c(Cl)c1-c1noc(-c2cc(O)c(O)c([N+](=O)[O-])c2)n1	42.5 % of control
O=[N+]([O-])c1cc(-c2nc(-c3cc(-c4ccccc4)c[n+]([O-])c3)no2)cc(O)c1O	111.6 % of control

====

Target: rat liver COMT (Rattus norvegicus, UniProt P22734)
Construct: the organs were immediately removed and homogenised in 5 mM phosphate buffer of pH 7.8; from tissue; host or cells: rat liver homogenate (Wistar rats, dosed orally; ex vivo activity)
Sequence (P22734 1-264): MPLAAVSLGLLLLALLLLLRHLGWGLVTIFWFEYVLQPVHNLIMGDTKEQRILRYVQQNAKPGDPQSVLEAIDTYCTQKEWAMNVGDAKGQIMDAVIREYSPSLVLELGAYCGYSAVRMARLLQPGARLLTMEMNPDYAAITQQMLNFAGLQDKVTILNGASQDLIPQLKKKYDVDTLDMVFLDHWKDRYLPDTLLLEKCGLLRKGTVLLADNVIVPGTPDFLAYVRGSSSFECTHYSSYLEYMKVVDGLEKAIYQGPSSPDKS
Assay: Rat liver COMT activity after oral administration of test compounds
Type: in vivo
Conditions: 3 mg/kg oral, 9 h after administration
Experimental readout: Rat Liver COMT activity (% control)

Compound	Observed result
O=[N+]([O-])c1cc(-c2nc(Cc3ccc(C(F)(F)F)[n+]([O-])c3)no2)cc(O)c1O [Compound 43]	77.9 % control
Cc1ccc(C(=O)c2cc(O)c(O)c([N+](=O)[O-])c2)cc1 [Tolcapone, reference compound]	83.9 % control
Cc1cc(C(F)(F)F)c(-c2noc(-c3cc(O)c(O)c([N+](=O)[O-])c3)n2)c[n+]1[O-] [Compound 30]	54.5 % control
O=[N+]([O-])c1cc(-c2nc(-c3c[n+]([O-])ccc3C(F)(F)F)no2)cc(O)c1O [Compound 18]	57.4 % control
